Assay: Metabolic stability in rat hepatocyte assessed as intrinsic clearance measured per 10^6 cells
Type: ADME, cell-based
Conditions: hepatocytes, read-out: CLH
valueType: hepatocyte CLint (µL/min/1e6 cells)
Quick note: give the figure in µL/min/1e6 cells, leave out the unit.

Req: Tell me the measured hepatocyte CLint of COC[C@H](C(=O)Nc1cccc2c(-c3nc(Nc4cccc(S(C)(=O)=O)c4F)ncc3F)c[nH]c12)N1CCN(C)CC1 [LONDAMOCITINIB] , please.
Resp: 6.9

###

Entries annotated with measured solubility thermodynamic at 24 h
Assay: Thermodynamic solubility of the compound in phosphate buffer at pH 7.4 measured after 24 hrs by HPLC-MS analysis
Type: physicochemical
Settings: read-out: Therm_solubility
Quick note: give the figure in µM, leave out the unit.

{"lineNotation": "Cc1cnc(Nc2cccc(S(C)(=O)=O)c2F)nc1-c1c[nH]c2c(NC(=O)[C@@H](C)N3CCN(C)CC3)cccc12", "valueType": "solubility thermodynamic at 24 h", "testValue": 15}
{"lineNotation": "COC[C@H](C(=O)Nc1cccc2c(-c3nc(Nc4cccc(S(C)(=O)=O)c4F)ncc3F)c[nH]c12)N1CCN(C)CC1", "valueType": "solubility thermodynamic at 24 h", "testValue": 7}

Now look at this entry.
Req: Tell me the measured solubility thermodynamic at 24 h of COC[C@H](C(=O)Nc1cccc2c(-c3nc(Nc4cccc(S(C)(=O)=O)c4F)ncc3C)c[nH]c12)N1CCN(C)CC1 , please.
Resp: 40

###

Assay: Terminal half life in Han Wistar rat at 1 mg/kg, po
Type: ADME, organism-based
Conditions: in vivo, read-out: beta t1/2 (converted)
valueType: half-life (h)
Quick note: give the figure in h, leave out the unit.

Req: Tell me the measured half-life of COC[C@H](C(=O)Nc1cccc2c(-c3nc(Nc4cccc(S(C)(=O)=O)c4F)ncc3F)c[nH]c12)N1CCN(C)CC1 , please.
Resp: 4.7

###

Test: Solubility in phosphate buffer at pH 7.4
Format: physicochemical
valueType: solubility

{"lineNotation": "C[C@H](C(=O)Nc1cccc2c(-c3nc(Nc4cccc(S(C)(=O)=O)c4F)ncc3F)c[nH]c12)N1CCN(C)CC1", "solubility": "14 µM"}
{"lineNotation": "CC[C@H](C(=O)Nc1cccc2c(-c3nc(Nc4cccc(S(C)(=O)=O)c4F)ncc3C)c[nH]c12)N1CCN(C)CC1", "solubility": "11 µM"}
{"lineNotation": "COC[C@H](C(=O)Nc1cccc2c(-c3nc(Nc4cccc(S(C)(=O)=O)c4F)ncc3C)c[nH]c12)N1CCN(C)CC1", "solubility": "38 µM"}
{"lineNotation": "Cc1cnc(Nc2cccc(S(C)(=O)=O)c2F)nc1-c1c[nH]c2c(NC(=O)[C@@H](C)N3CCN(C)CC3)cccc12", "solubility": "15 µM"}
{"lineNotation": "CC[C@H](C(=O)Nc1cccc2c(-c3nc(Nc4cccc(S(C)(=O)=O)c4F)ncc3F)c[nH]c12)N1CCN(C)CC1", "solubility": "9 µM"}

Req: Tell me the measured solubility of COC[C@H](C(=O)Nc1cccc2c(-c3nc(Nc4cccc(S(C)(=O)=O)c4F)ncc3F)c[nH]c12)N1CCN(C)CC1 , please.
Resp: 6 µM

###

Entries annotated with measured efflux ratio
Assay: Efflux ratio of apparent permeability across apical to basolateral side in human Caco-2 cells at pH 7.4
Format: ADME, cell-based
Conditions: Caco-2, pH 7.4
API note: the answer field is a bare number with no unit suffix.

{"lineNotation": "CC[C@H](C(=O)Nc1cccc2c(-c3nc(Nc4cccc(S(C)(=O)=O)c4F)ncc3C)c[nH]c12)N1CCN(C)CC1", "valueType": "efflux ratio", "testValue": 3.6}

Now look at this entry.
Req: Tell me the measured efflux ratio of Cc1cnc(Nc2cccc(S(C)(=O)=O)c2F)nc1-c1c[nH]c2c(NC(=O)[C@@H](C)N3CCN(C)CC3)cccc12 , please.
Resp: 4.9

###

Assay: Volume of distribution at steady state in Han Wistar rat at 0.5 mg/kg, iv
Assay type: ADME, organism-based
Conditions: in vivo, read-out: Vdss
valueType: Vd
Write the figure, then the unit, nothing else.

{"lineNotation": "Cc1cnc(Nc2cccc(S(C)(=O)=O)c2F)nc1-c1c[nH]c2c(NC(=O)[C@@H](C)N3CCN(C)CC3)cccc12", "Vd": "9.2 L/kg"}

Req: Tell me the measured Vd of COC[C@H](C(=O)Nc1cccc2c(-c3nc(Nc4cccc(S(C)(=O)=O)c4F)ncc3F)c[nH]c12)N1CCN(C)CC1 , please.
Resp: 11 L/kg

Req: Can you check CC[C@H](C(=O)Nc1cccc2c(-c3nc(Nc4cccc(S(C)(=O)=O)c4F)ncc3C)c[nH]c12)N1CCN(C)CC1 next?
Resp: 9 L/kg

###

Test: AUC(0 to 24 hrs) in rat at 0.020 micromol/kg, IT
Format: ADME
Set-up: dose 0.02 µmol/kg, route it
Details: in vivo, 0.02 µmol/kg
Entries annotated with measured AUC(0-t)
Write the figure, then the unit, nothing else.

{"lineNotation": "CC[C@H](C(=O)Nc1cccc2c(-c3nc(Nc4cccc(S(C)(=O)=O)c4F)ncc3C)c[nH]c12)N1CCN(C)CC1", "testValue": "1.6 µM·h"}
{"lineNotation": "COC[C@H](C(=O)Nc1cccc2c(-c3nc(Nc4cccc(S(C)(=O)=O)c4F)ncc3F)c[nH]c12)N1CCN(C)CC1", "testValue": "8.6 µM·h"}
{"lineNotation": "Cc1cnc(Nc2cccc(S(C)(=O)=O)c2F)nc1-c1c[nH]c2c(NC(=O)[C@@H](C)N3CCN(C)CC3)cccc12", "testValue": "1.5 µM·h"}

Req: Tell me the measured AUC(0-t) of COC[C@H](C(=O)Nc1cccc2c(-c3nc(Nc4cccc(S(C)(=O)=O)c4F)ncc3C)c[nH]c12)N1CCN(C)CC1 , please.
Resp: 0.7 µM·h

###

Target: Tyrosine-protein kinase JAK1 (Homo sapiens)
Sequence (P23458 whole entry, the tested form may be a part): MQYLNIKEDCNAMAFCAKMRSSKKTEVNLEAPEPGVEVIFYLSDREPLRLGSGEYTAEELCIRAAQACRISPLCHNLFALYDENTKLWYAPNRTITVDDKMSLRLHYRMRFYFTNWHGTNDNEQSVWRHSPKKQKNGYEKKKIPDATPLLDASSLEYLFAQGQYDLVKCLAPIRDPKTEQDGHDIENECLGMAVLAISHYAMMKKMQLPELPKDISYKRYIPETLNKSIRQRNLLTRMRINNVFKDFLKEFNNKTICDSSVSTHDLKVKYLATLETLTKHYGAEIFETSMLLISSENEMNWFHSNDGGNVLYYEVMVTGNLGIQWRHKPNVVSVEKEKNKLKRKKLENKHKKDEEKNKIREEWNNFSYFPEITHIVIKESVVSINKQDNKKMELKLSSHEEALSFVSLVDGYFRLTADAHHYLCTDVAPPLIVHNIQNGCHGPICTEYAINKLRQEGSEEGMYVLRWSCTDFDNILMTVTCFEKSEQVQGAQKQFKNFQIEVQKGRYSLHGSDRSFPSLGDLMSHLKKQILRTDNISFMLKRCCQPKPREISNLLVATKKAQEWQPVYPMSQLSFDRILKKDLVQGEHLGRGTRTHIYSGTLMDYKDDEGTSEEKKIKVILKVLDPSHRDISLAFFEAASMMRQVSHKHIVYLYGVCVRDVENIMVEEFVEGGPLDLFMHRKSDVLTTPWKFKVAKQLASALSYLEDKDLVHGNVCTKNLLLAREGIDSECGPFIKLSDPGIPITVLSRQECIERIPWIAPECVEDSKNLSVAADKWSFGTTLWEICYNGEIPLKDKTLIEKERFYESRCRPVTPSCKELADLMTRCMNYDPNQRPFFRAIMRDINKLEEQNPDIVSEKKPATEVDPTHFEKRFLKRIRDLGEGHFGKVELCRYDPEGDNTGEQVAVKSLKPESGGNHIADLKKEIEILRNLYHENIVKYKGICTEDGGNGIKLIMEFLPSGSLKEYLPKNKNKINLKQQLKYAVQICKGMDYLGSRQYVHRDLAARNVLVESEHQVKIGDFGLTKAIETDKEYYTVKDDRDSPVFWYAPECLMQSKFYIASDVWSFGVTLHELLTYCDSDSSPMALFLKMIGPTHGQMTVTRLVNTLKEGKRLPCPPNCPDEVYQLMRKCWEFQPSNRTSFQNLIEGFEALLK
Assay: Inhibition of GST-tagged human recombinant JAK1 (866 to 1154 residues) expressed in insect cells
valueType: pIC50
In plain terms, pIC50 is the concentration in mol/L turned into minus its base-10 logarithm.

Req: Tell me the measured pIC50 of COC[C@H](C(=O)Nc1cccc2c(-c3nc(Nc4cccc(S(C)(=O)=O)c4F)ncc3F)c[nH]c12)N1CCN(C)CC1 , please.
Resp: 9.27
